Cited source: PubChem BioAssay (NCATS)

- System: CAOV3
- PROTOCOL_DESCRIPTION: Primary qHTS to identify gynecologic anti-cancer compounds using libraries of approved drugs and bioactive compounds (AID 1345084); further: nearly all actives have a fitted effect of over 55% in size
- EXPERIMENTAL_SETUP: Gynecologic cancer cell panel viability, ATPlite luminescence, 48 h; series mostly up to 57.5 µM
Records with an inconclusive call do not appear. Active and inactive are the calls of the source. The call rests on the fitted dose curve; in most records, active means well fitted cell-killing curve with a large enough effect; inconclusive means small, poorly fitted or top-dose-only effect, or effect the other way; inactive means flat fitted curve, though single readings scatter.
Outcome codes: true (1) for active, false (0) for inactive

COMPOUND: COc1cc(O)cc(/C=C/c2ccc(O[C@@H]3O[C@H](CO)[C@@H](O)[C@H](O)[C@H]3O)cc2)c1
ASSIGNED_CLASS: false (0)
--
COMPOUND: C=C1OC2CC(C(=O)O)C=CC2NC1=O (centres undefined)
ASSIGNED_CLASS: false (0)
--
COMPOUND: CC1=C(CO)C(=O)O[C@@H]([C@@H](C)[C@H]2CC[C@H]3[C@@H]4C[C@H]5O[C@]56[C@@H](O)C=CC(=O)[C@]6(C)[C@H]4CC[C@]23C)C1
ASSIGNED_CLASS: true (1)
--
COMPOUND: CC(C)(C)NS(=O)(=O)c1cncc(-c2cc(F)c3nc(N)nn3c2)c1
ASSIGNED_CLASS: false (0)
--
COMPOUND: COc1cc(Br)c(S(=O)(=O)Nc2ccc(C(F)(F)F)c(O[C@@H]3CCN(C)C3)c2)cc1OC
ASSIGNED_CLASS: false (0)
--
COMPOUND: CC(C)c1cc(CNc2nc(Nc3cc(C4CC4)[nH]n3)cc(N3CCN(C)CC3)n2)on1
ASSIGNED_CLASS: true (1)
--
COMPOUND: CC1OC2OC(=O)C3(C)CC4=C(CO)C5=C(CC(=O)C4(C)C(C1=O)C23)C(C)(C)OC(=O)C5 (centres undefined)
ASSIGNED_CLASS: false (0)
--
COMPOUND: Cc1cc(C)nc(NS(=O)(=O)c2ccc(NC(=S)NC(=O)COc3ccc(Br)cc3Cl)cc2)n1
ASSIGNED_CLASS: false (0)
--
COMPOUND: C[C@@H]1C[C@@H](O)[C@@]23CO[C@@H](O)[C@@H]2CCC[C@@H]3[C@@]12C[C@@H](c1ccoc1)OC2=O
ASSIGNED_CLASS: false (0)
--
COMPOUND: Cc1ccccc1NC(=O)Nc1ccc(CC(=O)N(C)[C@@H](CC(C)C)C(=O)NCC[C@H](NC(=O)[C@@H]2CCCN2S(=O)(=O)c2cc(Cl)cc(Cl)c2)C(=O)O)cc1
ASSIGNED_CLASS: false (0)
--
COMPOUND: C=C1C(=O)O[C@@H]2C/C(C)=C\C(=O)/C=C(\C)[C@@H](OC(=O)/C(C)=C\C)[C@H](O)[C@@H]12
ASSIGNED_CLASS: true (1)
--
COMPOUND: Nc1nc(-n2cc(C(=O)O)c(=O)c3cc(F)c(N4CC(O)C4)c(Cl)c32)c(F)cc1F
ASSIGNED_CLASS: false (0)
--
COMPOUND: C=C(C(=O)O)C1CCC2(C)CCC(O)C(=C)C2C1 (centres undefined)
ASSIGNED_CLASS: false (0)
--
COMPOUND: CCCC(=O)C1CCN(c2ncnc3c2CN(C(=O)c2ccc(-c4ccccc4)cc2)CC3)CC1
ASSIGNED_CLASS: false (0)
--
COMPOUND: Cc1ccc(NC(=O)C(=O)NC2CC(C)(C)NC(C)(C)C2)cc1
ASSIGNED_CLASS: false (0)
--
COMPOUND: C=C1CCC2C(C)(C(=O)O)CCCC2(C)C1CCC(C)CC(=O)O (centres undefined)
ASSIGNED_CLASS: false (0)
--
COMPOUND: CCC(=O)O[C@H]1C(C)(C)[C@H]([C@@H](O)C(=O)OC)[C@]2(C)C(=O)[C@@]1(O)[C@H]1O[C@]13C1CC(=O)O[C@@H](c4ccoc4)[C@]1(C)CCC32 (some centres undefined)
ASSIGNED_CLASS: false (0)
--
COMPOUND: COC(=O)c1cc(OC)cc(OC)c1C(=O)c1c(OC)cc2c(c1O)C1CCCC(C)(O2)O1 (centres undefined)
ASSIGNED_CLASS: false (0)
--
COMPOUND: CCCCc1nc2cc(/C=C/C(=O)NO)ccc2n1CCN(CC)CC
ASSIGNED_CLASS: true (1)
